The entries below are paired with their reported tissue uptake at 1 h.
test: in vivo; conditions: male, NRG, mouse, iv, total radioactivity, Biodistribution Muscle Mean
Numbered stars: 1 amine (or outer) side, 2 acyl side, 3 side chain; on linkers, the order of the positions; unused ones are H or OH. Square brackets hold non-standard residues; d marks the D form. Peptide text beside a SMILES is read from it. * marks the point of attachment. DOTA = O=C(O)CN1CCN(CC(=O)O)CCN(CC(=O)*)CCN(CC(=O)O)CC1; Leuψ(CH2N)ThzNH2 = CC(C)C[C@@H](CN1CSC[C@H]1C(N)=O)N*; NMeH = CN[C@@H](Cc1c[nH]cn1)C(=O)O; X1 = O=C(CN1CCC(N[*:1])CC1)[*:2]; Tle = CC(C)(C)[C@H](N)C(=O)O; Thz = O=C(O)[C@@H]1CSCN1
Lab book: enter the figure in %ID/g, no units written.

These recorded examples may help you get a feel for the data.
- CC(C)C[C@@H](CN1CSC[C@H]1C(N)=O)NC(=O)[C@H](Cc1c[nH]cn1)NC(=O)CNC(=O)[C@@H](NC(=O)[C@H](C)NC(=O)[C@H](Cc1c[nH]c2ccccc12)NC(=O)[C@H](CCC(N)=O)NC(=O)[C@@H](Cc1ccccc1)NC(=O)CN1CCC(NC(=O)CN2CCN(CC(=O)O)CCN(CC(=O)O)CCN(CC(=O)O)CC2)CC1)C(C)(C)C [^68Ga-LW01158, metal not drawn] ({DOTA}-[X1][dF]QWA[Tle]GH-{Leuψ(CH2N)ThzNH2}): 0.2
- CC(C)C[C@H](NC(=O)[C@H](Cc1c[nH]cn1)NC(=O)CNC(=O)[C@@H](NC(=O)[C@H](C)NC(=O)[C@H](Cc1c[nH]c2ccccc12)NC(=O)[C@H](CCC(N)=O)NC(=O)[C@@H](Cc1ccccc1)NC(=O)CN1CCC(NC(=O)CN2CCN(CC(=O)O)CCN(CC(=O)O)CCN(CC(=O)O)CC2)CC1)C(C)(C)C)C(=O)N1CSC[C@H]1C(N)=O [^68Ga-LW01108, metal not drawn]: 0.17
- CC(C)C[C@H](NC(=O)[C@H](Cc1cnc[nH]1)N(C)C(=O)CNC(=O)[C@@H](NC(=O)[C@H](C)NC(=O)[C@H](Cc1c[nH]c2ccccc12)NC(=O)[C@H](CCC(N)=O)NC(=O)[C@@H](Cc1ccccc1)NC(=O)CN1CCC(NC(=O)CN2CCN(CC(=O)O)CCN(CC(=O)O)CCN(CC(=O)O)CC2)CC1)C(C)(C)C)C(=O)N1CSC[C@H]1C(N)=O [^68Ga-LW01110, metal not drawn]: 0.14

Let us examine a further case.
Look up tissue uptake at 1 h for this compound: CC(C)C[C@H](NC(=O)[C@H](Cc1cnc[nH]1)N(C)C(=O)CNC(=O)[C@@H](NC(=O)[C@H](C)NC(=O)[C@H](Cc1c[nH]c2ccccc12)NC(=O)[C@H](Cc1c[nH]cn1)NC(=O)[C@@H](Cc1ccccc1)NC(=O)CN1CCC(NC(=O)CN2CCN(CC(=O)O)CCN(CC(=O)O)CCN(CC(=O)O)CC2)CC1)C(C)(C)C)C(=O)N1CSC[C@H]1C(N)=O [^68Ga-LW01142, metal not drawn] ({DOTA}-[X1][dF]HWA[Tle]G[NMeH]L[Thz]-NH2) 0.52

meta.source: patent US12246076B2
